# TEST TARGET: rat mGlu2 (Rattus norvegicus, UniProt P31421)
# Construct: expressed in transfected cells
# Sequence (P31421 19-872): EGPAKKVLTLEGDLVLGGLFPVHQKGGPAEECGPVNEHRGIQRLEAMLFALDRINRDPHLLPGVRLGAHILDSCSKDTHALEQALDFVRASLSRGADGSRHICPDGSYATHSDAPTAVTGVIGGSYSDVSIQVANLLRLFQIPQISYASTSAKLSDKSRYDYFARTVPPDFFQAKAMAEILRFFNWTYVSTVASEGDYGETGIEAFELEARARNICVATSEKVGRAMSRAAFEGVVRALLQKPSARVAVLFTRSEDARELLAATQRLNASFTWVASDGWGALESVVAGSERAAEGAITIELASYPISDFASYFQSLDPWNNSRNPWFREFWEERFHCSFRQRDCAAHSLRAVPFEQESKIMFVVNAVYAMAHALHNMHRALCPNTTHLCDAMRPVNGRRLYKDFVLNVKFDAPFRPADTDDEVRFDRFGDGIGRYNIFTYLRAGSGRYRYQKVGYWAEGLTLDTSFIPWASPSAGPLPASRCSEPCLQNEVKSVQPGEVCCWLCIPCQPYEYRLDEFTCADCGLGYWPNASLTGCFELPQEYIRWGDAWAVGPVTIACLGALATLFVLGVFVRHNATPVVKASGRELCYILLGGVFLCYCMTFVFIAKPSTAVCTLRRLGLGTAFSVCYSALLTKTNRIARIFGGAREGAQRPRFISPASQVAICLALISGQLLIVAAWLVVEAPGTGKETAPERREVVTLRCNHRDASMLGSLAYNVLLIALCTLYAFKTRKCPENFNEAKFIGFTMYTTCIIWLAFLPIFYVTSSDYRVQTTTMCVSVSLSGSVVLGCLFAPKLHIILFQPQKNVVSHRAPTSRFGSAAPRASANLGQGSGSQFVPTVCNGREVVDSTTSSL
# TEST DESCRIPTION: mGlu2 Ca2+ flux assay
# Type: cell-based
# CONDITION LABEL: amplitude of response in the presence of 30 μM test compound as percentage of maximal response to glutamate; read-out: rat mGlu2 Glu max (%)
Provide the recorded remaining activity at 30 µM for the entries that follow.
Return type: number; implicit unit %.

Data request: Give the reported remaining activity at 30 µM for NC(=O)c1cn(-c2ccc(F)cc2)c2ccc(COc3ccc(Cl)nc3)cc2c1=O [Compound 37] (system: rat mGlu2 (Rattus norvegicus, UniProt P31421)).
Data returned: 1.7

Data request: Further, for NC(=O)c1cn(-c2ccc(F)cc2)c2ccc(CCc3ccc(C(F)(F)F)nc3)cc2c1=O [Compound 47] ?
Data returned: 1.21

Data request: What about this molecule? Cc1ncc(-c2ccc3c(c2)c(=O)c(C(N)=O)cn3-c2ccc(F)cc2)cn1 [Compound 62]
Data returned: 30.3

Data request: What about Cc1ncc(CCc2cc(F)c3c(c2)c(=O)c(C(N)=O)cn3-c2ccc(F)cc2)cn1 [Compound 49] ?
Data returned: 1.53

Data request: And then CN(Cc1cccnc1)c1cc2c(=O)c(C(N)=O)cn(-c3ccc(F)cc3)c2cc1F [Compound 52] , what is it?
Data returned: 2.26

Data request: Check NC(=O)c1cn(-c2ccc(F)cc2)c2ccc(NCCN3CCOCC3)cc2c1=O [Compound 28] too.
Data returned: 0.77

Data request: Subsequent entry: Cc1ccc(CCc2ccc3c(c2)c(=O)c(C(N)=O)cn3-c2ccc(F)cc2)cc1 [Compound 6]
Data returned: 68.5

Data request: Moving on to C[C@@H]1CN(Cc2ccc3c(c2)c(=O)c(C(N)=O)cn3-c2ccc(F)cc2)C[C@H](C)O1 [Compound 64]
Data returned: 1.42

Data request: Next record, please: Cc1ccc(OCc2ccc3c(c2)c(=O)c(C(N)=O)cn3-c2ccc(F)cc2)cn1 [Compound 41]
Data returned: 1.62

Data request: Try Cc1ncc(OCc2ccc3c(c2)c(=O)c(C(N)=O)cn3-c2ccc(F)cc2)cn1 [Compound 35] next.
Data returned: 1.71

Data request: Now consider CC1(C)CN(Cc2ccc3c(c2)c(=O)c(C(N)=O)cn3-c2ccc(F)cc2)CCO1 [Compound 90] and answer again.
Data returned: 2.01

Data request: Try this molecule next: NC(=O)c1cn(-c2ccc(F)cc2)c2ccc(CN3CCC(C(F)(F)F)CC3)cc2c1=O [Compound 77]
Data returned: 1.41

Data request: Same question for NC(=O)c1cn(-c2ccc(F)cc2)c2ccc(Nc3cccnc3)cc2c1=O [Compound 16] please.
Data returned: 1.77

Data request: Same thing, different molecule: NC(=O)c1cn(-c2ccc(F)cc2)c2ccc(CN3CCCC4CCCCC43)cc2c1=O (centres unmarked) [Compound 67]
Data returned: 2.4

Data request: Subsequent entry: Cc1ccc(Oc2ccc3c(c2)c(=O)c(C(N)=O)cn3-c2ccc(F)cc2)cn1 [Compound 55]
Data returned: 1.96

Data request: Another molecule: NC(=O)c1cn(-c2ccc(F)cc2)c2ccc(-c3cccnc3)cc2c1=O [Compound 60]
Data returned: 1.33

Data request: Ok, now NC(=O)c1cn(-c2ccc(F)cc2)c2ccc(CN3CCN(C4CC4)CC3)cc2c1=O [Compound 66]
Data returned: 1.89
